# target_or_system: Urea transporter 2 (Rattus norvegicus)
# Sequence (Q62668 whole entry): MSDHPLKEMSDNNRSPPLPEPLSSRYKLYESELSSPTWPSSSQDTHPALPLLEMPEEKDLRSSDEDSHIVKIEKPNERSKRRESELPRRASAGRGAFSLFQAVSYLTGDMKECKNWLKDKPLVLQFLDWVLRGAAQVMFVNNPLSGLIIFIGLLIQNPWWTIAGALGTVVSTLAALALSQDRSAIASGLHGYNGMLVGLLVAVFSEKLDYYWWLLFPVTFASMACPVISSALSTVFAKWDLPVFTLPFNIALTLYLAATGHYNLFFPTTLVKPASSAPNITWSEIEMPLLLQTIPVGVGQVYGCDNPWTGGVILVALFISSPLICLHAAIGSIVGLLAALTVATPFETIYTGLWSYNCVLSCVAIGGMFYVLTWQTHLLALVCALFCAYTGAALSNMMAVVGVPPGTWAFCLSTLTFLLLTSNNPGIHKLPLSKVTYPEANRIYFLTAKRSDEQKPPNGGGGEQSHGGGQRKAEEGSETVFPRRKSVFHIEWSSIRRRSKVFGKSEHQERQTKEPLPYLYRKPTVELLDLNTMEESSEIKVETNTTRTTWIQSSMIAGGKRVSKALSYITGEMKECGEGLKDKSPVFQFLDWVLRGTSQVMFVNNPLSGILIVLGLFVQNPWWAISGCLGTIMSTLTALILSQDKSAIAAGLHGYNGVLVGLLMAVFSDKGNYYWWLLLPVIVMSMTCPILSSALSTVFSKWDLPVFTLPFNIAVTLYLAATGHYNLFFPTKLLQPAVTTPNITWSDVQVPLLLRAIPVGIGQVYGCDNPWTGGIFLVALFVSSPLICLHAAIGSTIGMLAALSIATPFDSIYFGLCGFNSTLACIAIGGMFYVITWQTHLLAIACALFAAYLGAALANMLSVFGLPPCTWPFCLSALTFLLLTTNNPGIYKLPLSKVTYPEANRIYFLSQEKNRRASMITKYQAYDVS
# assay_summary: Inhibition of rat UT-A1 expressed in MDCK-UT-A1-AQP1-YFP cells after 15 mins by fluorescence assay
# label = 1 if IC50 < 20 µM else -1

Quick check: IC50 of CS(=O)(=O)Nc1cccc(C(=O)c2cccc(NS(C)(=O)=O)c2)c1 under 20 µM?
-1

Quick check: IC50 of O=C(O)/C=C\C(=O)Nc1ccc2c(c1)C(=O)c1cc(NC(=O)/C=C\C(=O)O)ccc1-2 under 20 µM?
-1

Quick check: IC50 of CC(=O)Nc1ccc2c(c1)C(O)c1cc(NC(C)=O)ccc1-2 under 20 µM?
-1

Quick check: IC50 of O=C1c2cc([N+](=O)[O-])ccc2-c2ccc([N+](=O)[O-])cc21 under 20 µM?
-1

Quick check: IC50 of O=C(CBr)Nc1ccc2c(c1)C(=O)c1cc(NC(=O)CBr)ccc1-2 under 20 µM?
-1

Quick check: IC50 of CC(=O)Nc1ccc2c(c1)S(=O)(=O)c1cc(NC(C)=O)ccc1-2 under 20 µM?
1

Quick check: IC50 of CC(=O)Nc1cccc(C(=O)c2cccc(NC(C)=O)c2)c1 under 20 µM?
1

Quick check: IC50 of CC(=O)Nc1ccc2c(c1)C(=NO)c1cc(NC(C)=O)ccc1-2 under 20 µM?
1

Quick check: IC50 of Nc1ccc2c(c1)C(=O)c1cc(N)ccc1-2 under 20 µM?
-1

Quick check: IC50 of NC(=O)Nc1ccc2c(c1)C(=O)c1cc(NC(N)=O)ccc1-2 under 20 µM?
1

Quick check: IC50 of O=C(COCc1ccccc1)Nc1cccc(C(=O)c2cccc(NC(=O)COCc3ccccc3)c2)c1 under 20 µM?
-1

Quick check: IC50 of O=C(COCc1ccccc1)Nc1ccc2c(c1)C(=O)c1cc(NC(=O)COCc3ccccc3)ccc1-2 under 20 µM?
-1
